- Target Or System: T1, GST-MLK3 SH3(43–104) (human, UniProt Q16584 43-104)
- T1 construct: also called GST-MLK3 SH3-WT; SH3 WT
- T1 sequence (looked up): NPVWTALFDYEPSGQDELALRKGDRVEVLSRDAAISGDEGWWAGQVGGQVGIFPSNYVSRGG
- Assay Explanation: ELISA; competition ELISA: GST-MLK3 SH3 (5 μg/ml) preincubated 1–1.5 h with ≈0.01–100 μM unlabeled competitor peptide, then 45 min on biotinylated MIP (≈2 μM) captured via NeutrAvidin; anti-GST-HRP detection; GST tag tested as a control
- Conditions: both partners purified

Binder: AIRINPNGTWSRQAETVES (also called MIP(1–19); soluble MIP peptide; source: synthetic peptide) [unlabeled MIP (synthetic)]
Unit Text: µM
IC50: 15.8
